# Ki per record follows
measured.target: α2-adrenergic receptor
assay.context: [3H] clonidine binding site, calf cerebral cortex
Quick note: give the figure in nM, leave out the unit.

Worked examples follow.
> print(dat)
                                   compound         measured.target  numeric.readout
1        CN1CCN(c2ncccc2Br)CC1 [Compound 2]  α2-adrenergic receptor              2.9
2     FC(F)(F)c1cccnc1N1CCNCC1 [Compound 3]  α2-adrenergic receptor               97
3  Cl.Cl.Ic1cccnc1N1CCNCC1 [Compound 1, Dihydrochloride]  α2-adrenergic receptor               42
4        CN1CCN(c2ncccc2Cl)CC1 [Compound 7]  α2-adrenergic receptor              2.7
5         CN1CCN(c2ncccc2F)CC1 [Compound 6]  α2-adrenergic receptor                5

get_value(item= O=[N+]([O-])c1cccnc1N1CCNCC1 [Compound 5, 1-(3-Nitro-2-pyridinyl)piperazine] , readout=Ki) returns 26

get_value(item= c1ccc(N2CCNCC2)nc1 [Compound 4] , readout=Ki) returns 37

====

measured.target: α1-adrenergic receptor
assay.summary: α1-adrenergic receptor binding ([3H] prazosin binding site)
assay.context: calf cerebral cortex
# pKi per record follows
Would you please state pKi, meaning minus log10 of the concentration in mol/L, as a bare number?

Worked examples follow.
> print(dat)
                                   compound  numeric.readout
1                      CN1CCN(c2ncccc2F)CC1             6.31
2  Cl.Cl.Ic1cccnc1N1CCNCC1 [Compound 1, Dihydrochloride]             5.80
3                        c1ccc(N2CCNCC2)nc1             5.62
4                  FC(F)(F)c1cccnc1N1CCNCC1             5.55
5                     CN1CCN(c2ncccc2Cl)CC1             6.67

get_value(item= CN1CCN(c2ncccc2Br)CC1 , readout=pKi) returns 6.80

get_value(item= O=[N+]([O-])c1cccnc1N1CCNCC1 , readout=pKi) returns 5.42

====

Tested on: α2-adrenergic receptor
Assay type: binding, calf
assay.context: Ki α1 / Ki α2, calf cerebral cortex
# α1/α2 (ratio of Ki) per record follows

Worked examples follow.
> print(dat)
                                   molecule         measured.target     measurement.kind  result
1  O=[N+]([O-])c1cccnc1N1CCNCC1 [Compound 5, 1-(3-Nitro-2-pyridinyl)piperazine]  α2-adrenergic receptor  α1/α2 (ratio of Ki)     146
2        CN1CCN(c2ncccc2Br)CC1 [Compound 2]  α2-adrenergic receptor  α1/α2 (ratio of Ki)      55
3      Cl.Cl.Ic1cccnc1N1CCNCC1 [Compound 1]  α2-adrenergic receptor  α1/α2 (ratio of Ki)      38
4           c1ccc(N2CCNCC2)nc1 [Compound 4]  α2-adrenergic receptor  α1/α2 (ratio of Ki)      65
5     FC(F)(F)c1cccnc1N1CCNCC1 [Compound 3]  α2-adrenergic receptor  α1/α2 (ratio of Ki)      29

Moving on to the next molecule.
get_value(item= CN1CCN(c2ncccc2F)CC1 [Compound 6] , readout=α1/α2 (ratio of Ki)) returns 98

Measured values drawn from patent US4442103A for this set.
